# EC50 listing for each entry below
Tested on: HIV-1 strain NL4-3 in MT4 cells
Assay: Cytopathic effect inhibition test
Format: cell-based
Conditions: Figure 7; HIV-1 NL4-3, MT4 cells; read-out: Antiviral activity EC50 (HIV)
Experimental: Human T cell leukemia (MT4) cell line was maintained in RPMI-1640 (“Chumakov FSC R&D IBP RAS”, Moscow, Russia) with 10% of fetal bovine serum (FBS, Invitrogen, Waltham, MA, USA), L-glutamine and gentamicin. […] Eight two-fold dilutions of stock solutions of the compounds in two replicates were prepared in RPMI-1640 (“Chumakov FSC R&D IBP RAS”, Russia). […] EC50 values were calculated according to the Karber method. […] Mean and SD were calculated with OriginPro 8 (OriginLab, St. Louis, MO, USA).
# value in µM; strip the unit string

COc1c(O)ccc(C=C2N=C(C=Cc3ccncc3)N(C)C2=O)c1O: 4

Please find the next molecule below.
## Task Value wanted: EC50 (HIV-1 strain NL4-3 in MT4 cells) of entry "COc1cc(O)ccc1C=C1N=C(C=Cc2c(F)c(F)c(F)c(F)c2F)N(C)C1=O"
## Result 2
